Where do the numbers come from? From patent US7001907B2.

The entries below are paired with their reported log10(IC50).
target: Recombinant human calpain I (Homo sapiens); construct: made in house; test: Inhibition of cysteine protease activity: calpain I, Succ-Leu-Tyr-MNA substrate hydrolysis; assay type: biochemical; settings: Table 5, achiral P2 mimetic α-ketoamides
// do not treat as linear: log10 of IC50, unit nM

The following molecules have reported results that may help.
{"columns": ["smiles-input", "log10(IC50)"],
 "data": [
  ["O=C(NCCNS(=O)(=O)c1ccc(-c2ccon2)s1)C(=O)[C@H](Cc1ccccc1)NC(=O)c1c(F)cccc1F", 1.79],
  ["CC(C)CCC(=O)N[C@@H](Cc1ccccc1)C(=O)C(=O)NCCNS(=O)(=O)c1ccc(-c2cccc(C#N)c2)s1", 1.18],
  ["O=C(NCCNS(=O)(=O)c1ccc(-c2cccc(CN3CCOCC3)c2)s1)C(=O)[C@H](Cc1ccccc1)NC(=O)c1c(Cl)cccc1Cl", 1.46],
  ["Cc1ccc(Cl)c(C(=O)N[C@@H](Cc2ccccc2)C(=O)C(=O)NCCNS(=O)(=O)c2ccc(-c3ccccn3)s2)c1Cl", 1.79],
  ["COc1ccc(Cl)c(C(=O)N[C@@H](Cc2ccccc2)C(=O)C(=O)NCCNS(=O)(=O)c2ccc(-c3ccccn3)s2)c1", 1.81]
]}

// switching to the query molecule
[Q] Please give the measured log10(IC50) for this molecule: CC(C)CCC(=O)N[C@@H](Cc1ccccc1)C(=O)C(=O)NCCNS(=O)(=O)c1ccc(-c2ccccn2)s1
[A] 1.46

====

target: Recombinant human calpain I (Homo sapiens, UniProt P07384); construct: made in house; assay: Inhibition of cysteine protease activity: calpain I, Succ-Leu-Tyr-MNA substrate hydrolysis; format: biochemical; details: Table 4, α-ketoamides
The entries below are paired with their reported IC50.
Please state the number and follow it with the unit.

[Q] Please give the measured IC50 for this compound: CS(=O)(=O)N[C@H](COCc1ccccc1)C(=O)N[C@@H](Cc1ccccc1)C(=O)C(=O)NCCNS(=O)(=O)c1ccc(-c2cccc(CN3CCSCC3)c2)s1
[A] 33 nM

[Q] Then CS(=O)(=O)N[C@H](COCc1ccccc1)C(=O)N[C@@H](Cc1ccccc1)C(=O)C(=O)NCCNS(=O)(=O)c1ccc(-c2cccc(CN3CCC(=O)CC3)c2)s1 ?
[A] 16 nM

[Q] Then CS(=O)(=O)N[C@H](COCc1ccccc1)C(=O)N[C@@H](Cc1ccccc1)C(=O)C(=O)NCCNS(=O)(=O)c1ccc(-c2ccc(C=O)cc2)s1 ?
[A] 17 nM

====

The entries below are paired with their reported pIC50.
biological target: Recombinant human calpain I (Homo sapiens); construct: made in house; test: Inhibition of cysteine protease activity: calpain I, Succ-Leu-Tyr-MNA substrate hydrolysis; assay type: biochemical; conditions: Table 2, linear α-ketoamides
Convention used: pIC50 is expressed as -log10 of the molar concentration.

The following compounds have reported results that may help.
{"columns": ["compound", "pIC50"],
 "data": [
  ["CS(=O)(=O)NC(COCc1ccccc1)C(=O)NC(Cc1ccccc1)C(=O)C(=O)NCCNS(=O)(=O)c1ccc(-c2cccc(N)c2)s1 (mixture of isomers) [Compound 44]", 7.51],
  ["CS(=O)(=O)N[C@H](COCc1ccccc1)C(=O)N[C@@H](Cc1ccccc1)C(=O)C(=O)NCCNS(=O)(=O)c1ccc(S(=O)(=O)c2ccccc2)s1 [Compound 37]", 7.74],
  ["CS(=O)(=O)N[C@H](COCc1ccccc1)C(=O)N[C@@H](Cc1ccccc1)C(=O)C(=O)NCCNS(=O)(=O)c1cccnc1 [Compound 31]", 7.54]
]}

// switching to the query compound
[Q] Please give the measured pIC50 for this compound: CS(=O)(=O)N[C@H](COCc1ccccc1)C(=O)N[C@@H](Cc1ccccc1)C(=O)C(=O)NCCNS(=O)(=O)c1ccc(-c2ccc(N)cc2)cc1 [Compound 40]
[A] 7.20

====

The entries below are paired with their reported pIC50.
Target: Recombinant human calpain I (Homo sapiens)
Construct: made in house
Sequence (P07384 1-714): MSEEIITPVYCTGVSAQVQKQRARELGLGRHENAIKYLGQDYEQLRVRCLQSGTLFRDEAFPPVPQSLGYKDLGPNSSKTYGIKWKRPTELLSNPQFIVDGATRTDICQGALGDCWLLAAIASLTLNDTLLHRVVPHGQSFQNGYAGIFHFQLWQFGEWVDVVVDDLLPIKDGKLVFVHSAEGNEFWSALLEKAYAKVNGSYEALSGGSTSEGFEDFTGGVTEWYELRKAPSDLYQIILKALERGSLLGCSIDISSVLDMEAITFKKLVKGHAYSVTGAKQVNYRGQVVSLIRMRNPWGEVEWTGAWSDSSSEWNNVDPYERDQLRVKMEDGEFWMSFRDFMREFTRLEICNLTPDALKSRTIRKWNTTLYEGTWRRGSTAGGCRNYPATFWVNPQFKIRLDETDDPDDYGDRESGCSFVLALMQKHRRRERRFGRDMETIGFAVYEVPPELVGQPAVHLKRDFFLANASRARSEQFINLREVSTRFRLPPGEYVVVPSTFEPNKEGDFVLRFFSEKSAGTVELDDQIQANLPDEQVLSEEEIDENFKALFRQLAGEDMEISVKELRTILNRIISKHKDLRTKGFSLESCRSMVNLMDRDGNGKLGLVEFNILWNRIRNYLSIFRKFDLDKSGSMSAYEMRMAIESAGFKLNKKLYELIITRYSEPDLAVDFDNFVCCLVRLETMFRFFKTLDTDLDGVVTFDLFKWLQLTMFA
Sequence (P04632 1-268 partner): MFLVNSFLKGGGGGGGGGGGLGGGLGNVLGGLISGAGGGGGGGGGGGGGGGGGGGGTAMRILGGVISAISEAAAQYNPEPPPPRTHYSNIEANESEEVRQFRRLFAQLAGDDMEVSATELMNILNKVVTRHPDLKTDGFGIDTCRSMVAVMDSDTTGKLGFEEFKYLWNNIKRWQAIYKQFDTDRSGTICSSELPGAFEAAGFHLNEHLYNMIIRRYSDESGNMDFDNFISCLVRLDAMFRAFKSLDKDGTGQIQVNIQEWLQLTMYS
Test: Inhibition of cysteine protease activity: calpain I, Succ-Leu-Tyr-MNA substrate hydrolysis
Format: biochemical
Settings: Table 5, achiral P2 mimetic α-ketoamides
Convention used: pIC50 is expressed as -log10 of the molar concentration.

{"columns": ["compound", "value"],
 "data": [
  ["O=C(NCCNS(=O)(=O)c1ccc(-c2ccon2)s1)C(=O)[C@H](Cc1ccccc1)NC(=O)c1c(F)cccc1Cl", 7.24],
  ["CC(C)CC(=O)N[C@@H](Cc1ccccc1)C(=O)C(=O)NCCNS(=O)(=O)c1ccc(-c2ccccn2)s1", 6.23],
  ["N#Cc1cccc(-c2ccc(S(=O)(=O)NCCNC(=O)C(=O)[C@H](Cc3ccccc3)NC(=O)c3c(Cl)cccc3Cl)s2)c1", 7.96],
  ["CC(C)c1ccccc1C(=O)N[C@@H](Cc1ccccc1)C(=O)C(=O)NCCNS(=O)(=O)c1ccc(-c2ccon2)s1", 6.77],
  ["CC(CCC(=O)N[C@@H](Cc1ccccc1)C(=O)C(=O)NCCNS(=O)(=O)c1ccc(-c2ccccn2)s1)c1ccccc1 (stereo partly shown)", 7.06],
  ["O=C(NCCNS(=O)(=O)c1ccc(-c2ccccn2)s1)C(=O)[C@H](Cc1ccccc1)NC(=O)c1ccccc1", 6.10]
]}

// switching to the query compound
[Q] Return pIC50 measured with Recombinant human calpain I (Homo sapiens) given this compound: CC(C)C(=O)N[C@@H](Cc1ccccc1)C(=O)C(=O)NCCNS(=O)(=O)c1ccc(-c2ccccn2)s1
[A] 5.82

====

The entries below are paired with their reported IC50.
molecular target: Recombinant human calpain I (Homo sapiens, UniProt P07384); construct: made in house; assay: Inhibition of cysteine protease activity: calpain I, Succ-Leu-Tyr-MNA substrate hydrolysis; type: biochemical; details: Table 4, α-ketoamides
Please state the figure in nM; there is no need to write the unit.

{"columns": ["molecule", "units-text", "IC50"],
 "data": [
  ["CS(=O)(=O)N[C@H](COCc1ccccc1)C(=O)N[C@@H](Cc1ccccc1)C(=O)C(=O)NCCCS(=O)(=O)Nc1ccccc1", "nM", 18],
  ["CS(=O)(=O)N[C@H](COCc1ccccc1)C(=O)N[C@@H](Cc1ccccc1)C(=O)C(=O)NCCCS(=O)(=O)N1CCOCC1", "nM", 124],
  ["CS(=O)(=O)NC(COCc1ccccc1)C(=O)NC(Cc1ccccc1)C(=O)C(=O)NC1CCN(S(=O)(=O)c2ccc(CN3CCOCC3)cc2)CC1 (mixture of isomers)", "nM", 48],
  ["CN(C)Cc1cccc(-c2ccc(S(=O)(=O)NCCNC(=O)C(=O)[C@H](Cc3ccccc3)NC(=O)[C@@H](COCc3ccccc3)NS(C)(=O)=O)s2)c1", "nM", 12],
  ["COCC1CCCN1Cc1ccc(S(=O)(=O)NCCNC(=O)C(=O)[C@H](Cc2ccccc2)NC(=O)[C@@H](COCc2ccccc2)NS(C)(=O)=O)cc1 (stereo partly shown)", "nM", 19]
]}

[Q] Return IC50 measured with Recombinant human calpain I (Homo sapiens, UniProt P07384) given this molecule: CN(CCNC(=O)C(=O)[C@H](Cc1ccccc1)NC(=O)[C@@H](COCc1ccccc1)NS(C)(=O)=O)S(=O)(=O)c1ccc(-c2cccc(C=O)c2)s1
[A] 19

[Q] Then CS(=O)(=O)NC(COCc1ccccc1)C(=O)NC(Cc1ccccc1)C(=O)C(=O)NCCNS(=O)(=O)c1ccc(-c2cccc([N+](=O)[O-])c2)s1 (mixture of isomers) ?
[A] 15

[Q] Then CS(=O)(=O)NC(COCc1ccccc1)C(=O)NC(Cc1ccccc1)C(=O)C(=O)NCCCCCNS(=O)(=O)c1ccc(-c2ccccn2)s1 (mixture of isomers) ?
[A] 12

[Q] Then CC(C)C[C@H](NC(=O)OCc1ccccc1)C(=O)N[C@@H](CC(C)C)C(=O)N[C@@H](Cc1ccccc1)C(=O)C(=O)NCCNS(=O)(=O)c1ccc(-c2ccccn2)s1 ?
[A] 33

[Q] Then CS(=O)(=O)N[C@H](COCc1ccccc1)C(=O)N[C@@H](Cc1ccccc1)C(=O)C(=O)NCCCS(=O)(=O)NN1CCOCC1 ?
[A] 169
